# System: MOLT-4 leukemia
# Test description: NCI tumour cell line growth inhibition, 48 h
Give TGI for every item shown.

Compound: COC1C(CO)OC(n2c3ccccc3c3c4c(c5c6ccccc6[nH]c5c32)C(=O)NC4=O)C(OC(=O)C(N)CCCCN)C1O (configuration not stated)
Assayed target: MOLT-4 leukemia
Test result: 13.3 µM
//
Compound: CN(O)C(=O)c1ccccc1
Assayed target: MOLT-4 leukemia
Test result: > 100 µM
//
Compound: COc1nc(NC2OC(COC(C)=O)C(OC(C)=O)C(OC(C)=O)C2OC(C)=O)c(N=CC=Nc2c(NC3OC(COC(C)=O)C(OC(C)=O)C(OC(C)=O)C3OC(C)=O)nc(OC)n(C)c2=O)c(=O)n1C (configuration not stated)
Assayed target: MOLT-4 leukemia
Test result: > 100 µM
//
Compound: Nc1ccc2c(c1)Cc1cc(Cl)c(Cl)cc1-2
Assayed target: MOLT-4 leukemia
Test result: > 100 µM
//
Compound: Cc1c(NC(=O)c2cc(C(N)=O)nc3cc(F)ccc23)c(C(F)(F)F)nn1Cc1ccc(C#N)cc1
Assayed target: MOLT-4 leukemia
Test result: > 100 µM

I'm hoping you can list TGI for every compound here, please.
1. COc1cc(/C=N/NC(=O)c2ccc(NC(C)=O)cc2OC)ccc1O
2. Cc1ccc(C[N+](C)(C)N)cc1C
3. C=C(Br)CN(C)CC(=C)Br
4. CN(C)c1ccc(-c2[nH]c(=O)c3ccccc3[n+]2C)cc1
5. COc1cc(/C=N/N=C(\N)NO)cc(Cl)c1O
6. CC12OC(=O)[C@@]3(O)CCC4C(C[C@H]5O[C@]56CC=CC(=O)[C@]46C)C45OC[C@H]6C(=O)O[C@@H]1C[C@@]6(C)[C@H](C4=O)C23O5 (some centres not stated)

["> 100 µM", "> 10 µM", "> 100 µM", "> 100 µM", "> 100 µM", "21.4 µM"]

I'm hoping you can list TGI for every compound here, please.
1. COc1ccc2[nH]c3c(C)c4ccnc(NCCCN(C)CCCNc5ccc6nnn7c8ccccc8c(=O)c5c67)c4c(C)c3c2c1
2. O=c1[nH]c(=O)n(C2OC(CO)C(N(O)Cc3ccc(F)cc3)C2O)cc1Br (configuration not stated)
3. C[C@]12CCC3c4ccc(O)cc4CC[C@H]3C1CC(=O)N(CCN1CCCC1)C2=O (some centres not stated)
4. COc1cc2c[n+]3ccc4cc(OC)c(OC)cc4c3cc2cc1O
5. CC/C(CC(=O)CCC(=O)Nc1c(C)cccc1C)=N\NC(=O)NN

0.132 µM
> 100 µM
> 10 µM
> 100 µM
> 100 µM

I'm hoping you can list TGI for every compound here, please.
1. NC(=O)NN=C1C[C@H]2CCCC[C@H]2C1
2. O=C(O)/C=N/NC(=S)NC1CCCCC1
3. COc1ccc(C2=C(c3cn(C)c4ccccc34)C(=O)NC2=O)cc1
4. Cc1ccc(S(=O)(=O)NC(CCC(=O)NN)C(=O)NN)cc1 (configuration not stated)

1: > 100 µM; 2: > 100 µM; 3: > 25 µM; 4: > 100 µM

I'm hoping you can list TGI for every compound here, please.
1. O=C(Nc1ccn(C2CC(O)C(CO)O2)c(=O)n1)c1ccccc1 (configuration not stated)
2. COc1cc(-n2cncc2-c2ccc3ccccc3c2)cc(OC)c1OC

> 100 µM
> 66.9 µM
